Cited source for all entries: ChEMBL document CHEMBL4699573

Quick reference: K of the listed items.
MEASUREMENT TARGET: Sodium channel protein type 8 subunit alpha (Homo sapiens)
Sequence (Q9UQD0 whole entry, looked up, the tested form may be a part): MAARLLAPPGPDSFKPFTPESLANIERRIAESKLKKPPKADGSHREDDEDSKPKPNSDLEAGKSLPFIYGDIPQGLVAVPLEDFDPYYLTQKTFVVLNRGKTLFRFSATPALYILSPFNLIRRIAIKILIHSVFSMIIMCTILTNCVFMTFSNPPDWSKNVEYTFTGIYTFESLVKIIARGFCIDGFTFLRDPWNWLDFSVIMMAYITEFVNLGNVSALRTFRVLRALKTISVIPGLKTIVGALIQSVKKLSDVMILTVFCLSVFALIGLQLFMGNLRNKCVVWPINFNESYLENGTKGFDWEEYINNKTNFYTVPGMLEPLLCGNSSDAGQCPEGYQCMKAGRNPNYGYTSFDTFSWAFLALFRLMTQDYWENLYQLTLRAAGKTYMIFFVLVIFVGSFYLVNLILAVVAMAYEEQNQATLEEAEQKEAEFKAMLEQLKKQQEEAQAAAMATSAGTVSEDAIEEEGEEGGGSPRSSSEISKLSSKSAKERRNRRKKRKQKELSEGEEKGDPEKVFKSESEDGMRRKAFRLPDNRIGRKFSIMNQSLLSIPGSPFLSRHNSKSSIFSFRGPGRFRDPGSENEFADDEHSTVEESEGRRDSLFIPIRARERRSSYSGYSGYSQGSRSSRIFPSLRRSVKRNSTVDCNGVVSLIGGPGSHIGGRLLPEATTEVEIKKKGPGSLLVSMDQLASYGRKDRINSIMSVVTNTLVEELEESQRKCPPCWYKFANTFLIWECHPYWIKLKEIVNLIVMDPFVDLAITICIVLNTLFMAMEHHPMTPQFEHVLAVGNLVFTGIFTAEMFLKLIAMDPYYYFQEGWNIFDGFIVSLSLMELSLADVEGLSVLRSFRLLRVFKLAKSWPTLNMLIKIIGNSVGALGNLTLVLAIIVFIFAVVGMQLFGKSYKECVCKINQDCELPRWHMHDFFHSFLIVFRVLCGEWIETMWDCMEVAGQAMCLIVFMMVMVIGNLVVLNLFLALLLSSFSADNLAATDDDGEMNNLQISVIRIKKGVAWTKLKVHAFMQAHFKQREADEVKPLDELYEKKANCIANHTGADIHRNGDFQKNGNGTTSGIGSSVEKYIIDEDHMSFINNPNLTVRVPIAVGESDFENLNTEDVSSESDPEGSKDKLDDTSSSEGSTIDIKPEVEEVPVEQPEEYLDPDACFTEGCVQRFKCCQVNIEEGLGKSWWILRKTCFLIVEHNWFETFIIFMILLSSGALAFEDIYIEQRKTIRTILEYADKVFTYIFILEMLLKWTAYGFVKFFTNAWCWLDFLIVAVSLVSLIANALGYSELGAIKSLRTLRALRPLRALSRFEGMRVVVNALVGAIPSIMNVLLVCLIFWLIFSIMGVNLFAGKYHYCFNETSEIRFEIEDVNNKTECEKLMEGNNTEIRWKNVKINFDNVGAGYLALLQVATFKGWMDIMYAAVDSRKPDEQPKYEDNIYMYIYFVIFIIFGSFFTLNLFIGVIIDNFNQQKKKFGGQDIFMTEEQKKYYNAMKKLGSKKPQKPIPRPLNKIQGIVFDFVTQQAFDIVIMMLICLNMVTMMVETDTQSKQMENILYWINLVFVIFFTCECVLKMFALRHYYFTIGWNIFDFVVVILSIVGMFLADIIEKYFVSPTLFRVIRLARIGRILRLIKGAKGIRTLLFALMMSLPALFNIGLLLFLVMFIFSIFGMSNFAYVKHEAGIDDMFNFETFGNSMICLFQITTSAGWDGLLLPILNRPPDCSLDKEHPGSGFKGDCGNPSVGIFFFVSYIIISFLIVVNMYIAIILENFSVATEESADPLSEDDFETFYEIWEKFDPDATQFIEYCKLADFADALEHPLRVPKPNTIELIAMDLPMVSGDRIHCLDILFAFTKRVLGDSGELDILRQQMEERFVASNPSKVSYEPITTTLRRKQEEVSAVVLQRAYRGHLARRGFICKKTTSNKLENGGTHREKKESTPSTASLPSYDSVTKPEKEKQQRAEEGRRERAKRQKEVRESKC
TEST DESCRIPTION: Binding affinity to human recombinant Nav1.6 C-terminal domain expressed in Escherichia coli BL21 assessed as dissociation rate constant by SPR analysis
ASSAY SETUP: filed as modulator
Residues, ends and D or L forms follow the SMILES beside them. *: point of attachment. Adamantane1carbonyl = O=C(C12CC3CC(CC(C3)C1)C2)*; Cbz = O=C(OCc1ccccc1)*; OcHex = C1CCC(O*)CC1; OtBu = CC(C)(C)O*; OAll = C=CCO*; OPr = CCCO*; X1 = C#CCO*

Answered examples (3):
>>> result("C=CCOC(=O)[C@@H](NC(=O)[C@H](CCC(=O)OC(C)(C)C)NC(=O)[C@H](CC(C)C)NC(=O)[C@@H]1CCCN1C(=O)OCc1ccccc1)C(C)C (Cbz-PLE(OtBu)V-OAll)")
"4.49 10^-3/s"
>>> result("CCOC(=O)[C@@H](NC(=O)[C@H](CCC(=O)OC(C)(C)C)NC(=O)[C@H](CC(C)C)NC(=O)[C@@H]1CCCN1C(=O)C12CC3CC(CC(C3)C1)C2)C(C)C (Adamantane1carbonyl-PLE(OtBu)V-OEt)")
"1.22 10^-2/s"
>>> result("CC(C)C[C@H](NC(=O)[C@@H]1CCCN1C(=O)C12CC3CC(CC(C3)C1)C2)C(=O)N[C@@H](CCC(=O)OC(C)(C)C)C(=O)N[C@H](C(=O)OC1CCCCC1)C(C)C (Adamantane1carbonyl-PLE(OtBu)V-OcHex)")
"1.7 10^-4/s"

[Q] Recorded K of COC(=O)[C@@H](NC(=O)[C@H](CCC(=O)OC(C)(C)C)NC(=O)[C@H](CC(C)C)NC(=O)[C@@H]1CCCN1C(=O)C12CC3CC(CC(C3)C1)C2)C(C)C (Adamantane1carbonyl-PLE(OtBu)V-OMe) , please.
[A] 3.57 10^-3/s

[Q] Note, next up: CCCOC(=O)[C@@H](NC(=O)[C@H](CCC(=O)OC(C)(C)C)NC(=O)[C@H](CC(C)C)NC(=O)[C@@H]1CCCN1C(=O)C12CC3CC(CC(C3)C1)C2)C(C)C (Adamantane1carbonyl-PLE(OtBu)V-OPr)
[A] 4.92 10^-2/s

[Q] Note, next up: C=CCOC(=O)[C@@H](NC(=O)[C@H](CCC(=O)OC(C)(C)C)NC(=O)[C@H](CC(C)C)NC(=O)[C@@H]1CCCN1C(=O)C12CC3CC(CC(C3)C1)C2)C(C)C (Adamantane1carbonyl-PLE(OtBu)V-OAll)
[A] 2.73 10^-3/s

[Q] Note, next up: CC(C)C[C@H](NC(=O)[C@@H]1CCCN1C(=O)C12CC3CC(CC(C3)C1)C2)C(=O)N[C@@H](CCC(=O)OC(C)(C)C)C(=O)N[C@H](C(=O)OC(C)(C)C)C(C)C (Adamantane1carbonyl-PLE(OtBu)V-OtBu)
[A] 7.94 10^-3/s

[Q] Note, next up: C#CCOC(=O)[C@@H](NC(=O)[C@H](CCC(=O)OC(C)(C)C)NC(=O)[C@H](CC(C)C)NC(=O)[C@@H]1CCCN1C(=O)C12CC3CC(CC(C3)C1)C2)C(C)C (Adamantane1carbonyl-PLE(OtBu)V-X1)
[A] 1.45 10^-3/s
